# experimental details: Solubility of odevixibat in water
# Format: physicochemical
# recorded conditions: pH 7, 37° C.
attribute measured: solubility

Exam item: So what's the measured solubility for this one? CCCCC1(CCCC)CN(c2ccccc2)c2cc(SC)c(OCC(=O)N[C@@H](C(=O)N[C@@H](CC)C(=O)O)c3ccc(O)cc3)cc2S(=O)(=O)N1
Marked response: ~30 µg/mL
